Data origin, for the record: patent US10144715B2

molecular target: Gal4 DNA binding domain fused to the LBD of LXRβ in HEK293 cells (Homo sapiens (Human), UniProt P55055); experiment: cell-based; details: Biological Test Example 2, agonist mode
Sequence (P55055 222-460 limits assumed): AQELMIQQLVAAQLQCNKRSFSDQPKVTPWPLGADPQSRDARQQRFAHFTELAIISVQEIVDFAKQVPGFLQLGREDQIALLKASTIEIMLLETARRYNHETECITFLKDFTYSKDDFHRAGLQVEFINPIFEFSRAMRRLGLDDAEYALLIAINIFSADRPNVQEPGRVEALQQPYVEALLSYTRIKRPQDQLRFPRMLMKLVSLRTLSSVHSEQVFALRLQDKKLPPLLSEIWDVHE
The molecules listed here are annotated with their Cell LXRβ efficacy.
observable: Cell LXRβ efficacy

                                   molecule  test_value
0  CC(C)[C@H]1CN(c2cccc(S(C)(=O)=O)c2)CCN1CC1CCC(C(F)(F)F)N(C)C1 (stereo partly drawn)   46 (74) %
1  NS(=O)(=O)c1cccc(N2CCN(CC3CCN(CC(F)(F)F)CC3)[C@@H](c3ccccc3)C2)c1 (single isomer, unassigned)   822 (9) %
2  CC(=O)NCc1cnc(N2CCN(c3ccc(F)c(S(C)(=O)=O)c3)C[C@H]2C(C)C)nc1C(F)(F)F  812 (27) %
